target: WIZ (Homo sapiens, UniProt O95785+Q96SW2); construct: expressed in transfected cells; assay: Quantification of WIZ protein levels in HiBit tag fusion protein assay (WIZ HiBit assay in 293T cells); type: cell-based; details: HEK-293T, DMSO-normalized, curve-fitted percentage of WIZ-HiBit remaining at 25 uM; read-out: WIZ Amax
Sequence (O95785 whole entry, the tested form may be a part): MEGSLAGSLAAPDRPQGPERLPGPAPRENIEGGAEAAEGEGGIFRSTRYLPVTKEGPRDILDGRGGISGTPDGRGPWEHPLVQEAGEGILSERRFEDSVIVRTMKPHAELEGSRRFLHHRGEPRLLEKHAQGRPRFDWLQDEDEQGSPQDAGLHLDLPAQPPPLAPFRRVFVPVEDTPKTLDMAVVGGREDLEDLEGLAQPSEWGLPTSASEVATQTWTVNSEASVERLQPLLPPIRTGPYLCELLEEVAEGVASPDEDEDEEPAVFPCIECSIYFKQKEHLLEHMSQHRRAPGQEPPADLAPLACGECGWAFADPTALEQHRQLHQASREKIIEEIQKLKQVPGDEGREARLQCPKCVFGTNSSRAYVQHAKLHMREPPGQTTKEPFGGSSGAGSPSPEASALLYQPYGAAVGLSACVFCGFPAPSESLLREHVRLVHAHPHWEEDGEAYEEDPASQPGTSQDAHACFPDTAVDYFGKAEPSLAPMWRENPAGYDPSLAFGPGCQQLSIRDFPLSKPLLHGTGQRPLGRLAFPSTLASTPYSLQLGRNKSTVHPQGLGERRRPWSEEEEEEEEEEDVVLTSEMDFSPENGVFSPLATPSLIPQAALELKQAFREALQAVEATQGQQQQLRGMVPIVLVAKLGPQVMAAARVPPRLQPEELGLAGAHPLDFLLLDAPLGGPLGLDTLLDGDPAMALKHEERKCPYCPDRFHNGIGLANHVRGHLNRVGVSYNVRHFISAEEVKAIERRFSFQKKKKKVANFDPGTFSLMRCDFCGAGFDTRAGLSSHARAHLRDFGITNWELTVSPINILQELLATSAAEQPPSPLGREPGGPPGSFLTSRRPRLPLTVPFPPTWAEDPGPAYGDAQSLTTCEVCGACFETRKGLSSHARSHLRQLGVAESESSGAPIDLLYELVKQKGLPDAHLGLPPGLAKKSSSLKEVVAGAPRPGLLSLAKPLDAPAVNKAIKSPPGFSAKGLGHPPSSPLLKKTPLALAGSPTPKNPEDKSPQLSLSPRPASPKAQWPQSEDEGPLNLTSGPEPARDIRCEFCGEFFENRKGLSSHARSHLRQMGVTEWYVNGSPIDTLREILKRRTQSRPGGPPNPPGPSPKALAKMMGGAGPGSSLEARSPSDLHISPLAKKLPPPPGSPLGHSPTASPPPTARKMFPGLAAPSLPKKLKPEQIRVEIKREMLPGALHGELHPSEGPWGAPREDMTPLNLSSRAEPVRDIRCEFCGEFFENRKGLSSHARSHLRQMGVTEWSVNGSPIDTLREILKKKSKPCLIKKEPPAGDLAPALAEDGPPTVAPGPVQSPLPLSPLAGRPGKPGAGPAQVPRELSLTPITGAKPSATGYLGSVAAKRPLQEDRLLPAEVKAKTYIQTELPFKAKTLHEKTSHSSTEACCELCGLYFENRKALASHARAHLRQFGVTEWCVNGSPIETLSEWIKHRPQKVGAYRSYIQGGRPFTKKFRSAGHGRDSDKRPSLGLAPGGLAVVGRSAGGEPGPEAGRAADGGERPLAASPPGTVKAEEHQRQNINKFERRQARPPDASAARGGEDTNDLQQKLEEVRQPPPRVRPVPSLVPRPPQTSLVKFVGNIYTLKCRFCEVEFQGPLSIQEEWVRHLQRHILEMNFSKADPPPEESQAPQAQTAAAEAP
Sequence (Q96SW2 whole entry, the tested form may be a part): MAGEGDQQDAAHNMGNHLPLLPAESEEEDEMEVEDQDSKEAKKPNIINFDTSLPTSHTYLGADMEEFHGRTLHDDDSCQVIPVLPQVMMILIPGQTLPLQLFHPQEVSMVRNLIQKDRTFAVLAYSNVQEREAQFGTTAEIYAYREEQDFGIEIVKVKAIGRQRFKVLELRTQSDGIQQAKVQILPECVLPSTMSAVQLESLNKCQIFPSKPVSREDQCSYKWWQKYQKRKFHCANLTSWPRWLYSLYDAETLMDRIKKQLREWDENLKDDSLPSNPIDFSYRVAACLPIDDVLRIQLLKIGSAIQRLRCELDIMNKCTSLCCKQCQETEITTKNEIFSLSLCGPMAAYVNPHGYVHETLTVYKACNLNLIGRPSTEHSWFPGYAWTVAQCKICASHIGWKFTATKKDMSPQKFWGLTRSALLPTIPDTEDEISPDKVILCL
Sequence (Q16531 whole entry partner, the tested form may be a part): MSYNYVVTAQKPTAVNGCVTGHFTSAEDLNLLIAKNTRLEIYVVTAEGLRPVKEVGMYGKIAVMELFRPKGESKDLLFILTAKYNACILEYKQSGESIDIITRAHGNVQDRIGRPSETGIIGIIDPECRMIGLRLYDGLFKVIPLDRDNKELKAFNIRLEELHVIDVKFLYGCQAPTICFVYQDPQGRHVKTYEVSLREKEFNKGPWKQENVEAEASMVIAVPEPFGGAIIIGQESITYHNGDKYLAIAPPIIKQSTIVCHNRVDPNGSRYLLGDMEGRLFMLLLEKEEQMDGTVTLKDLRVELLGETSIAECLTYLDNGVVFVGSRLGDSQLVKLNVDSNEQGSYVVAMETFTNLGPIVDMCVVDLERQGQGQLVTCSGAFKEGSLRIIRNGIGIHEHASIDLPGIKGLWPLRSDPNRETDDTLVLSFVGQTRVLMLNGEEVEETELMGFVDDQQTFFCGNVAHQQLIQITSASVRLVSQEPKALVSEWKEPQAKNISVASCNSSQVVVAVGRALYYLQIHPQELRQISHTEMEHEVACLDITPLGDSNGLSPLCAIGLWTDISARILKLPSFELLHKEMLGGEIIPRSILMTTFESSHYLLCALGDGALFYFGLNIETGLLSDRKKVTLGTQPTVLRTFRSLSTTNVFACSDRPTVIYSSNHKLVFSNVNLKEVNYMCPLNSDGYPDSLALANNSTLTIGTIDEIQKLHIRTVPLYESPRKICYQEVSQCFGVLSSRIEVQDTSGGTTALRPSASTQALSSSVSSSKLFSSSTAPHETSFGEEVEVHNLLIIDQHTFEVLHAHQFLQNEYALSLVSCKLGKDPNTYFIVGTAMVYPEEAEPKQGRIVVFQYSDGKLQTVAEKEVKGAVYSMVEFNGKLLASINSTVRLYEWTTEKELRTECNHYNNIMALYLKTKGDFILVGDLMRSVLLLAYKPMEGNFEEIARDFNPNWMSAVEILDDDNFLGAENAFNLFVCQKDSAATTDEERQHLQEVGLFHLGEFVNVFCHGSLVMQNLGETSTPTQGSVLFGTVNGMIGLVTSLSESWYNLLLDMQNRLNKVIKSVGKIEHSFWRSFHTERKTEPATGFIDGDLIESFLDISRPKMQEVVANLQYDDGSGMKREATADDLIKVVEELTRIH
Criterion: remaining activity at 25 µM strictly less than 20%. Met: criterion met. Not met: criterion not met.

# strict comparison: is reported remaining activity at 25 µM < 20%? input = CC(C)(C)OC(=O)N1[C@@H]2CC[C@H]1CN(Cc1ccc3onc(N4CCC(=O)NC4=O)c3c1)C2 [Example 99]
criterion not met

Threshold test, remaining activity at 25 µM < 20%: C[C@H]1CN(Cc2ccc3onc(N4CCC(=O)NC4=O)c3c2)[C@@H](C)CN1C [Example 106]
criterion met

Dear colleague, could you confirm whether remaining activity at 25 µM of O=C1CCN(c2noc3ccc(CN4CCN5CCOC[C@H]5C4)cc23)C(=O)N1 [Example 110] falls below 20%? Thanks.
criterion met

Answer whether the compound CC(C)CN1CCN(Cc2ccc3onc(N4CCC(=O)NC4=O)c3c2)C[C@@H]1C [Example 30] has remaining activity at 25 µM strictly less than 20%
criterion met

Below 20% on remaining activity at 25 µM? Entry O=C1CCN(c2noc3ccc(CC4CCNC4)cc23)C(=O)N1 (centres unmarked) [Example 48]
criterion not met

Please let me know if O=C1CCN(c2noc3ccc(CN4C[C@H]5CC[C@@H](C4)N5)cc23)C(=O)N1 [Example 100] shows remaining activity at 25 µM below 20%.
criterion not met

Consider C[C@@H]1CN(C(=O)N2CCCC2)CCN1Cc1ccc2onc(N3CCC(=O)NC3=O)c2c1 [Example 75] . Does its remaining activity at 25 µM lie strictly below 20%?
criterion not met

hey, is remaining activity at 25 µM for COC[C@H]1CN(Cc2ccc3onc(N4CCC(=O)NC4=O)c3c2)CCN1CC(C)C [Example 114] lower than 20% or not?
criterion met

###

Measured log10 DC50, listed per entry.
biological target: WIZ (Homo sapiens, UniProt O95785+Q96SW2); construct: expressed in transfected cells; experiment: Quantification of WIZ protein levels in HiBit tag fusion protein assay (WIZ HiBit assay in 293T cells); type: cell-based; conditions: WIZ HiBit assay in 293T cells; 10-point, 5-fold dilution, highest concentration 25 μM, about 18 hours; read-out: WIZ AC50
The base-10 logarithm of DC50, taken with DC50 in nM, is what appears here.

Examples with their reported log10 DC50 follow.
{"Molecule": "C[C@@H]1CN(CC2COC2)CCN1Cc1ccc2onc(N3CCC(=O)NC3=O)c2c1", "log10 DC50": 1.60}
{"Molecule": "C[C@H]1CN(Cc2ccc3onc(N4CCC(=O)NC4=O)c3c2)[C@@H](C)CN1C", "log10 DC50": 2.04}

The measured log10 DC50 associated with O=C1CCN(c2noc3ccc(CC4CCN(CC5CCCCC5)CC4)cc23)C(=O)N1 reads 0.86

// recorded log10 DC50 for COC[C@H]1CN(Cc2ccc3onc(N4CCC(=O)NC4=O)c3c2)CCN1CC(C)C : 2.06

Kindly note the recorded log10 DC50 for CN1CCC(Cc2ccc3onc(N4CCC(=O)NC4=O)c3c2)C1 (centres unmarked) , which is 2.65

Sample CS(=O)(=O)N1CC2CCC1CN2Cc1ccc2onc(N3CCC(=O)NC3=O)c2c1 (single isomer, unassigned) [Example 125] ; log10 DC50 observed: 2.08

Recorded log10 DC50 (molecule CN1CCCN(Cc2ccc3onc(N4CCC(=O)NC4=O)c3c2)CC1 ): 1.45

Short answer for CC(c1ccc2onc(N3CCC(=O)NC3=O)c2c1)N1CCN(C)CC1 (centres unmarked) : log10 DC50 was 2.17

###

Biological target: WIZ (Homo sapiens, UniProt O95785+Q96SW2)
Construct: expressed in transfected cells
Assay: Quantification of WIZ protein levels in HiBit tag fusion protein assay (WIZ HiBit assay in 293T cells)
Type: cell-based
Details: HEK-293T, 100 minus Amax at 25 uM; read-out: % degradation of WIZ (100-Amax)
Experimental: The HiBit system from Promega was used to develop high-throughput and quantitative assays to measure changes in WIZ protein levels in response to compounds. […] The complementary fragment of Nanoluciferase (known as LgBit, from Promega), was added to the HiBit tag to form an active Nanoluciferase enzyme whose activity can be precisely measured. In this way, the levels of a fusion protein with the HiBit tag can be quantified in cell lysates. […]
Measured Parameter: Dmax at 25 µM (%)
Please respond with the number in % and leave the unit unwritten.

{"Compound": "CC(C)N1CCN(Cc2ccc3onc(N4CCC(=O)NC4=O)c3c2)CC1 [Example 79]", "Dmax at 25 µM [%]": 92}
{"Compound": "C[C@H]1CN(CC2CCOCC2)[C@@H](C)CN1Cc1ccc2onc(N3CCC(=O)NC3=O)c2c1 [Example 107]", "Dmax at 25 µM [%]": 86}
{"Compound": "O=C1CCN(c2noc3ccc(CC4CCNC4)cc23)C(=O)N1 (centres unmarked) [Example 48]", "Dmax at 25 µM [%]": 77}
{"Compound": "C[C@@H]1CN(C2CCC2)CCN1Cc1ccc2onc(N3CCC(=O)NC3=O)c2c1 [Example 77]", "Dmax at 25 µM [%]": 82}
{"Compound": "CN1CC2CCC1CN2Cc1ccc2onc(N3CCC(=O)NC3=O)c2c1 (single isomer, unassigned) [Example 123]", "Dmax at 25 µM [%]": 89}

The recorded Dmax at 25 µM for CN1CCCC(Cc2ccc3onc(N4CCC(=O)NC4=O)c3c2)C1 (centres unmarked) [Example 45] is 77

GET /value?item= CN1CCCN(Cc2ccc3onc(N4CCC(=O)NC4=O)c3c2)CC1 [Example 63] &field=Dmax at 25 µM returns 84

Dmax at 25 µM reading for C[C@H]1CN(Cc2ccc3onc(N4CCC(=O)NC4=O)c3c2)CCN1CC1COC1 [Example 86] : 86

###

molecular target: WIZ (Homo sapiens, UniProt O95785+Q96SW2); construct: expressed in transfected cells; experiment: Quantification of WIZ protein levels in HiBit tag fusion protein assay (WIZ HiBit assay in 293T cells); assay type: cell-based; details: HEK-293T, DMSO-normalized, curve-fitted percentage of WIZ-HiBit remaining at 25 uM; read-out: WIZ Amax
Measured remaining activity at 25 µM of individual entries
The reply should contain only the number, in %.

# count of solved cases: 3
{"Compound": "O=C1CCN(c2noc3ccc(CC4CCN(CC(F)(F)F)CC4)cc23)C(=O)N1", "Target": "WIZ (Homo sapiens, UniProt O95785+Q96SW2)", "Unit Annotation": "%", "remaining activity at 25 µM": 11}
{"Compound": "CC(c1ccc2onc(N3CCC(=O)NC3=O)c2c1)N1CCN(C)CC1 (centres unmarked)", "Target": "WIZ (Homo sapiens, UniProt O95785+Q96SW2)", "Unit Annotation": "%", "remaining activity at 25 µM": 9}
{"Compound": "CC(C)N1CCN(Cc2ccc3onc(N4CCC(=O)NC4=O)c3c2)[C@H](C)C1", "Target": "WIZ (Homo sapiens, UniProt O95785+Q96SW2)", "Unit Annotation": "%", "remaining activity at 25 µM": 17}

Please examine the following record next.
Per the records, this compound ( CC(C)(C)OC(=O)N1C[C@@H]2C[C@H]1CN2Cc1ccc2onc(N3CCC(=O)NC3=O)c2c1 ) has remaining activity at 25 µM equal to 39

###

biological target: WIZ (Homo sapiens, UniProt O95785+Q96SW2); construct: expressed in transfected cells; experiment: Quantification of WIZ protein levels in HiBit tag fusion protein assay (WIZ HiBit assay in 293T cells); format: cell-based; details: HEK-293T, DMSO-normalized, curve-fitted percentage of WIZ-HiBit remaining at 25 uM; read-out: WIZ Amax
With a cut-off of 10%, any remaining activity at 25 µM strictly below it is called 1; any remaining activity at 25 µM meeting it or above is called -1.

Look over these answered cases.
{"Compound": "C[C@@H]1CN(CC2CCOCC2)CCN1Cc1ccc2onc(N3CCC(=O)NC3=O)c2c1", "Class Label": -1}
{"Compound": "C[C@H]1CN(CC2CCOCC2)[C@@H](C)CN1Cc1ccc2onc(N3CCC(=O)NC3=O)c2c1", "Class Label": -1}
{"Compound": "CC(C)(C)OC(=O)N1CCCC(Cc2ccc3onc(N4CCC(=O)NC4=O)c3c2)C1 (stereo not drawn)", "Class Label": -1}
{"Compound": "C[C@H]1CN(Cc2ccc3onc(N4CCC(=O)NC4=O)c3c2)CCN1CC1CCOCC1", "Class Label": 1}
{"Compound": "CC(C)CN1CCN(Cc2ccc3onc(N4CCC(=O)NC4=O)c3c2)CC1", "Class Label": -1}

I'd appreciate it if you could check whether C[C@@H]1CN(S(=O)(=O)N2CCCC2)CCN1Cc1ccc2onc(N3CCC(=O)NC3=O)c2c1 has remaining activity at 25 µM smaller than 10%.
-1
